assayed.target: Bromodomain-containing protein 9 (Homo sapiens) (UniProt Q9H8M2)
Sequence (Q9H8M2 whole entry, the tested form may be a part): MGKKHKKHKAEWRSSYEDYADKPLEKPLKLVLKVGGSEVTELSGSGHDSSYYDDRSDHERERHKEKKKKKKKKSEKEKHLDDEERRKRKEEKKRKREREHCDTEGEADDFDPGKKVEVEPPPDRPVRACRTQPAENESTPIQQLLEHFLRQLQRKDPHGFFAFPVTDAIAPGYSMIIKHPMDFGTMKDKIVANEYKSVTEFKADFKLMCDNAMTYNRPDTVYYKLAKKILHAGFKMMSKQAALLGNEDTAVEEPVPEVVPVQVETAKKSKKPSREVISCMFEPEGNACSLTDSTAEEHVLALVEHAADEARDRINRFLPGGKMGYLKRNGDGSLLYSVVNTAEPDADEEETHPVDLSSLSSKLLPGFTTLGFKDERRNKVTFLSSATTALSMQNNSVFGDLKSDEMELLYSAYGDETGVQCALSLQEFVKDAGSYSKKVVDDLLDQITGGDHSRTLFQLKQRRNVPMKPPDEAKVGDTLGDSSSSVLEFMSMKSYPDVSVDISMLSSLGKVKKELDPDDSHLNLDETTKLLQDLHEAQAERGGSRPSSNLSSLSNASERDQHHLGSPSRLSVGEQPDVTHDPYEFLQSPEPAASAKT
assay.details: Binding affinity to human His6-tagged BRD9 (L14 to Q134 residues) expressed in Escherichia coli BL21(DE3) cells at 200 uM incubated for 30 mins by SYPRO orange staining based fluorescence thermal shift assay
Tag: T if measured ΔTm is not below 1 °C, F if it is.

Solved cases (5 shown):
>  <query.smiles>
CCN1C(=O)c2cccc3c(S(=O)(=O)NCCCCNC(=O)OC(C)(C)C)ccc1c23

>  <category>
T

$$$$
>  <query.smiles>
CCN1C(=O)c2cccc3c(NS(=O)(=O)c4ccc(F)cc4)ccc1c23

>  <category>
T

$$$$
>  <query.smiles>
CCN1C(=O)c2cccc3c(S(=O)(=O)Nc4ccccc4C(=O)O)ccc1c23

>  <category>
F

$$$$
>  <query.smiles>
CCN1C(=O)c2cccc3c(S(=O)(=O)NCC4CCN(C(C)=O)CC4)ccc1c23

>  <category>
T

$$$$
>  <query.smiles>
CCN1C(=O)c2cccc3c(NS(=O)(=O)c4ccc(F)cc4F)ccc1c23

>  <category>
T

$$$$

Query string: Quick check, ΔTm >= 1 °C? "CCOC(=O)Nc1cc(-c2ccc(C)c(NS(C)(=O)=O)c2)nn2c(C)nnc12"
Result string: T

Query string: Quick check, ΔTm >= 1 °C? "CCN1C(=O)c2cccc3c(NS(=O)(=O)c4cc(Cl)ccc4OC)ccc1c23"
Result string: T

Query string: Quick check, ΔTm >= 1 °C? "CCCNS(=O)(=O)c1ccc2c3c(cccc13)C(=O)N2CC"
Result string: F

----------
Listed here are molecules together with their documented ΔTm.
assayed.target: Histone acetyltransferase p300 (Homo sapiens) (UniProt Q09472)
Sequence (Q09472 whole entry, the tested form may be a part): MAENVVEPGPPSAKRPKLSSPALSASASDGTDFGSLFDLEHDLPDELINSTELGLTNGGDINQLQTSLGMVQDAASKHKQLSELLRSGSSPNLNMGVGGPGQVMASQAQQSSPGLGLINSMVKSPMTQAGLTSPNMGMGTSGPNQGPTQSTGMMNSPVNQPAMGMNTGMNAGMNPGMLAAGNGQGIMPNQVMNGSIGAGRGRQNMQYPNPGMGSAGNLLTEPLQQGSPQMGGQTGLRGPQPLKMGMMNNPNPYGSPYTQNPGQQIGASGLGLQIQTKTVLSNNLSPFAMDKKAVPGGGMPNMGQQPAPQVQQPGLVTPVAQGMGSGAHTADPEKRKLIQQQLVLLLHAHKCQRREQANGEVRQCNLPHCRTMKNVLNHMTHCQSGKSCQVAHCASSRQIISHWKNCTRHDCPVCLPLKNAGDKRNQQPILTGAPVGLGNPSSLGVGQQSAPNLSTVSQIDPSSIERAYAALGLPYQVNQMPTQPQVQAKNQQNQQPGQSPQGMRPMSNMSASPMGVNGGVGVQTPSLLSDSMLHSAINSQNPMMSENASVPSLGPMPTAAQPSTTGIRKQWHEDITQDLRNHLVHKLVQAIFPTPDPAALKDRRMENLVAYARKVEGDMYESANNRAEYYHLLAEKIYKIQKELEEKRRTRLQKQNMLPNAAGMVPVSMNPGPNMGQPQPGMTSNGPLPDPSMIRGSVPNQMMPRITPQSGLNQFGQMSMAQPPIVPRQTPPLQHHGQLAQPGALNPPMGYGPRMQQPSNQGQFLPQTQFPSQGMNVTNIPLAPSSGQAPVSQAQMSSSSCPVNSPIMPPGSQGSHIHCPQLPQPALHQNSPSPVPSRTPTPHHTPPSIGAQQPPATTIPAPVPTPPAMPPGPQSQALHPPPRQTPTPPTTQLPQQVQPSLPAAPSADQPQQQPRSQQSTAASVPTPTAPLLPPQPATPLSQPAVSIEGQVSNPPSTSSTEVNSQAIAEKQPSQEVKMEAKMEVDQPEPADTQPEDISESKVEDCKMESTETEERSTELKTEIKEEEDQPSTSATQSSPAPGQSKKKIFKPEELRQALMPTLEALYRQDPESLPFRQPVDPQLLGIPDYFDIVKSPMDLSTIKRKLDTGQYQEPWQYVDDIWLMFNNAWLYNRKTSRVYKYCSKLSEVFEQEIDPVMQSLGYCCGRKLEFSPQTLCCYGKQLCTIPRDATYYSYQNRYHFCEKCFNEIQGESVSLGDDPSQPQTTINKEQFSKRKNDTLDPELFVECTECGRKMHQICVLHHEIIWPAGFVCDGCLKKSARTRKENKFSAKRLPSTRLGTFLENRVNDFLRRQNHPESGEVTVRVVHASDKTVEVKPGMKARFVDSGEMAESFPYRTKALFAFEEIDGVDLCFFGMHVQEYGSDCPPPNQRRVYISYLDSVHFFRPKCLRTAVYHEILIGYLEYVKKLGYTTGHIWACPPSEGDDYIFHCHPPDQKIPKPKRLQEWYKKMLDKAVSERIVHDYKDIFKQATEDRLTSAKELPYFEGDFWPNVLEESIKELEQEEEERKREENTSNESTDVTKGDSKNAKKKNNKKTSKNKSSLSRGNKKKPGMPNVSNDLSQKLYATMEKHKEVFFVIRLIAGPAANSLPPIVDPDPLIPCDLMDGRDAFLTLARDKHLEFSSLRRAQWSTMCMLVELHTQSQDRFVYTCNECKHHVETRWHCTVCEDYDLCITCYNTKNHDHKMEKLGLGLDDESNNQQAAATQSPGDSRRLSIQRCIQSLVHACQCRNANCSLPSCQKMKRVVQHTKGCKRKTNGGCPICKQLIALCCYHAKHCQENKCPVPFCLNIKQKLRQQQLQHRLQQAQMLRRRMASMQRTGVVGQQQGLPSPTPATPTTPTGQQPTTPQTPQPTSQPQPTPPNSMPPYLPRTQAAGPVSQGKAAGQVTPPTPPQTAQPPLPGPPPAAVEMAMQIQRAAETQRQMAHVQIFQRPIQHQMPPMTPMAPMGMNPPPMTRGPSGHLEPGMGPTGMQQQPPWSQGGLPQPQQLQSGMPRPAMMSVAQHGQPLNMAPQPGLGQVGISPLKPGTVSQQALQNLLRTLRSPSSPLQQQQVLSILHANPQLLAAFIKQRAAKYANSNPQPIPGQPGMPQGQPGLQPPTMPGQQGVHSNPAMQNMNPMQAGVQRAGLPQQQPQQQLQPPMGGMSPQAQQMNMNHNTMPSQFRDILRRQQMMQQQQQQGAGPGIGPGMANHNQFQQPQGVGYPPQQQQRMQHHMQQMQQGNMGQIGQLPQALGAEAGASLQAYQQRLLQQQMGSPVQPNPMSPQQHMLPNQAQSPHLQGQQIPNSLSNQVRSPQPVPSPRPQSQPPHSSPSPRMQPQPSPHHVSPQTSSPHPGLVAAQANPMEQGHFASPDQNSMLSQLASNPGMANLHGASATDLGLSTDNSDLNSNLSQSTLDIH
assay.details: Binding affinity to human His6-tagged EP300 (A1040 to G1161 residues) expressed in Escherichia coli BL21(DE3) cells at 200 uM incubated for 30 mins by SYPRO orange staining based fluorescence thermal shift assay
Provide the reading as a plain figure in °C.

Consider the following illustrative entries.
>  <query.smiles>
CCN1C(=O)c2cccc3c(NS(=O)(=O)c4ccc(F)cc4)ccc1c23

>  <recorded.number>
5.1

$$$$
>  <query.smiles>
CCN1C(=O)c2cccc3c(S(=O)(=O)NCC4CCN(C(C)=O)CC4)ccc1c23

>  <recorded.number>
0.2

$$$$
>  <query.smiles>
CCN1C(=O)c2cccc3c(NS(=O)(=O)c4ccc(F)cc4F)ccc1c23

>  <recorded.number>
4.5

$$$$

From here, focus on the item given below.
Query string: Notebook entry, Histone acetyltransferase p300 (Homo sapiens) (UniProt Q09472) assay: ΔTm of "CCCCS(=O)(=O)Nc1ccc2c3c(cccc13)C(=O)N2CC" = ?
Result string: 3.2

Where do these numbers come from? They come from ChEMBL document CHEMBL3779865.
